- PROTOCOL DESCRIPTION: NCI Yeast Anticancer Drug Screen. Data for the bub3 strain (AID 167)
- CONDITION LABEL: S. cerevisiae bub3 mutant strain, at 50.0 µM
The panel holds about 79,000 compounds, 15% with a hit somewhere; the sample as a whole holds those more often. Active and inactive are the calls of the source. No stated cut-off is given here; in the data, active means growth inhibition above about 70%; inactive means the rest.
Outcome codes: active, inactive

[[record]]
molecule = "CC(=O)Oc1c(C(OC(C)=O)OC(C)=O)ccc([N+](=O)[O-])c1OC(C)=O"
classification = "inactive"

[[record]]
molecule = "CCOC(=O)C1CN(C)C(=O)C1=O (stereo unspecified)"
classification = "inactive"

[[record]]
molecule = "COc1cc(/C=C2\\C=Cc3ccccc32)ccc1N(C)C"
classification = "inactive"

[[record]]
molecule = "Cc1cc2c(c3ccccc13)C(O)c1ccccc1-2 (stereo unspecified)"
classification = "inactive"

[[record]]
molecule = "COc1cccc2c1CCC(=O)C2"
classification = "inactive"

[[record]]
molecule = "CCC(C(=O)O)(C(C)C)C(C)C"
classification = "inactive"

[[record]]
molecule = "COc1ccc(C(CN(C)C(C)C)OC(=O)C(c2ccccc2)c2ccccc2)cc1OC (stereo unspecified)"
classification = "inactive"

[[record]]
molecule = "CC1=C(C)C(=O)c2c(OC(=O)c3ccccc3)ccc(OC(=O)c3ccccc3)c2C1=O"
classification = "inactive"

[[record]]
molecule = "COc1cc(C(c2ccc(O)c(OC)c2)c2ccc(O)c(OC)c2)ccc1O"
classification = "inactive"

[[record]]
molecule = "COC(=O)c1cc(-c2ccc(N)cc2)c2c(=O)n(-c3ccccc3)[nH]c2n1"
classification = "inactive"

[[record]]
molecule = "Oc1nc2nc[nH]n2c1N=Nc1ccccc1"
classification = "inactive"

[[record]]
molecule = "CC#CCCCC1(C)CCNC1=S (stereo unspecified)"
classification = "inactive"

[[record]]
molecule = "CCc1c(O)c2c(c(O)c1C(C)=O)C(=O)c1c(cc(O)c(C(=O)O)c1C(=O)O)C2=O"
classification = "inactive"

[[record]]
molecule = "CCCCC1(CC)COC2(CCCCC2)OC1"
classification = "inactive"

[[record]]
molecule = "Nc1nc2c(c(-c3ccc(Cl)cc3)n1)CN(c1ccc(Br)cc1)C2=O"
classification = "inactive"

[[record]]
molecule = "CSc1ncnc2ncn(C)c12"
classification = "inactive"

[[record]]
molecule = "CNc1ccc(CC(=O)O)cc1"
classification = "inactive"

[[record]]
molecule = "OC1(Cc2ccccn2)CCCc2ccccc21 (stereo unspecified)"
classification = "inactive"

[[record]]
molecule = "NC(=S)N/N=C/c1ccc(F)cn1"
classification = "inactive"

[[record]]
molecule = "C[Si](C)(C)c1ccc(CC2(Cc3ccc([Si](C)(C)C)cc3)CCNC2)cc1"
classification = "inactive"

[[record]]
molecule = "COc1cc([N+](=O)[O-])c(C)cc1Br"
classification = "inactive"

[[record]]
molecule = "COC(=O)CCC(CCC(=O)O)([N+](=O)[O-])[N+](=O)[O-]"
classification = "inactive"

[[record]]
molecule = "NS(=O)(=O)c1cccc(C(F)(F)F)c1"
classification = "inactive"

[[record]]
molecule = "Nc1nc(-c2ccccc2)c(N=Nc2cccc(Cl)c2)s1"
classification = "inactive"

[[record]]
molecule = "COC(=O)C1(C(=O)OC)OC(c2ccc(OC)cc2)[C@H]2C(=O)N(C)C(=O)[C@H]21 (stereo partly specified)"
classification = "inactive"

[[record]]
molecule = "O=C(NNC(=O)c1cccc(F)c1)c1ccccc1"
classification = "inactive"

[[record]]
molecule = "COc1cccc(/C=N/[N-]C(N)=O)c1[O-].[OH3+].[Pd+2]"
classification = "inactive"

[[record]]
molecule = "CCC(=O)C1C(=O)CC(=O)C(C)C1c1ccccc1OC (stereo unspecified)"
classification = "inactive"

[[record]]
molecule = "COc1ccc(/C(=C/n2ccnc2)C(=O)c2ccc(OC)c(OC)c2)cc1"
classification = "inactive"

[[record]]
molecule = "CN/N=C(/c1nc2ccc([N+](=O)[O-])cc2[nH]c1=O)C(O)c1ccc(C(O)/C(=N\\NC)c2nc3ccc([N+](=O)[O-])cc3[nH]c2=O)cc1 (stereo unspecified)"
classification = "inactive"

[[record]]
molecule = "CC1(CBr)COC(c2ccccc2)(c2ccccc2)OC1"
classification = "inactive"

[[record]]
molecule = "CCOC(=O)c1ccc(N[C@@H]2c3cc4c(cc3C(c3cc(OC)c(O)c(OC)c3)[C@H]3C(=O)OCC32)OCO4)cc1 (stereo partly specified)"
classification = "active"

[[record]]
molecule = "CCNC1CC(C(C)(C)NCC)CC=C1C (stereo unspecified)"
classification = "inactive"

[[record]]
molecule = "CCCn1c(SCC)c2ccccc2c1-c1nc(F)nc(F)n1"
classification = "inactive"

[[record]]
molecule = "CCOc1ccc(NC(=O)c2cccc(C(=O)Nc3ccc(OCC)cc3)c2)cc1"
classification = "inactive"

[[record]]
molecule = "N#C/C(=C/NC(=S)N=Nc1c(O)[nH]c2ccccc12)C(N)=O"
classification = "inactive"

[[record]]
molecule = "Nc1nc(N)c2nc(-c3ccc(N(CCO)CCO)cc3)c(N)nc2n1"
classification = "inactive"

[[record]]
molecule = "CCCCCCCCCCCCCCCCOCC(CCl)OP(=O)(O)OP(=O)(O)OCC1OC(n2ccc(N)nc2=O)C(O)C1O (stereo unspecified)"
classification = "inactive"

[[record]]
molecule = "O=C(O)C(=Cc1ccc(Br)cc1)C(=O)O"
classification = "inactive"

[[record]]
molecule = "C=C(Cl)C(C)(Cl)CCC(Cl)C(C)(C)Cl (stereo unspecified)"
classification = "inactive"

[[record]]
molecule = "Clc1ncnc2c1cnn2-c1ccccc1"
classification = "inactive"

[[record]]
molecule = "Nc1cc2c(O)cc(S(=O)(=O)O)cc2cc1S(=O)(=O)O"
classification = "inactive"

[[record]]
molecule = "O=c1nc(Oc2ccccc2)nc2ncccn12"
classification = "inactive"

[[record]]
molecule = "O=c1c(SCc2ccc(Cl)cc2Cl)c(SCc2ccc(Cl)cc2Cl)cnn1-c1ccccc1"
classification = "inactive"

[[record]]
molecule = "CN(C)C1=c2c(=O)n(C)c(=O)n(C)c2=NC2C=CC=CN12 (stereo unspecified)"
classification = "inactive"

[[record]]
molecule = "C=C(C)C1CC=C(C)[C@](O)(C2(O)C[C@H](C(=C)C)CC=C2C)C1 (stereo partly specified)"
classification = "inactive"

